Hello, the source for this data is ChEMBL document CHEMBL1141220, in case you need it.

method-summary: Intrinsic clearance (CL) in human liver microsomes at 2 uM
Format: ADME, Microsome

[
  {
    "smiles-code": "COC(=O)N[C@H](C(=O)NN(Cc1ccccc1)C[C@@](O)(Cc1ccccc1)C(=O)N[C@H]1c2ccccc2C[C@H]1O)C(C)(C)C",
    "units-symbol": "µL/min/mg",
    "microsomal CLint at 2 µM": 527
  }
]

###

assayed-system: Human immunodeficiency virus type 1 protease (Human immunodeficiency virus 1, UniProt Q72874)
pKi: −log10 of the molar value.
Recorded pKi values for a group of compounds are listed next.

[
  {
    "smiles-code": "COC(=O)N[C@H](C(=O)NN(Cc1ccccc1)C[C@@](O)(Cc1ccccc1)C(=O)N[C@H]1c2ccccc2C[C@H]1O)C(C)C",
    "pKi": 8.05
  },
  {
    "smiles-code": "COC(=O)N[C@H](C(=O)NN(Cc1ccccc1)C[C@@](O)(Cc1ccccc1)C(=O)N[C@H]1c2ccccc2C[C@H]1O)C(C)(C)C",
    "pKi": 8.22
  },
  {
    "smiles-code": "CC(C)[C@H](NC(=O)OCc1ccccc1)C(=O)NN(Cc1ccccc1)C[C@@](O)(Cc1ccccc1)C(=O)N[C@H]1c2ccccc2C[C@H]1O",
    "pKi": 7.64
  },
  {
    "smiles-code": "CC(C)[C@H](NC(=O)OCc1ccccc1)C(=O)NN(Cc1ccccc1)C[C@](O)(Cc1ccccc1)C(=O)N[C@H]1c2ccccc2C[C@H]1O",
    "pKi": 6.06
  },
  {
    "smiles-code": "CC(C)[C@H](NC(=O)OCc1ccccc1)C(=O)NN(Cc1ccc(Br)cc1)C[C@@](O)(Cc1ccccc1)C(=O)N[C@H]1c2ccccc2C[C@H]1O",
    "pKi": 7.77
  },
  {
    "smiles-code": "CC(C)(C)[C@H](NC(=O)NCc1ccccc1)C(=O)NN(Cc1ccccc1)C[C@@](O)(Cc1ccccc1)C(=O)N[C@H]1c2ccccc2C[C@H]1O",
    "pKi": 7.66
  },
  {
    "smiles-code": "CC(C)(C)[C@H](NC(=O)OCc1ccccc1)C(=O)NN(Cc1ccccc1)C[C@@](O)(Cc1ccccc1)C(=O)N[C@H]1c2ccccc2C[C@H]1O",
    "pKi": 7.74
  },
  {
    "smiles-code": "CC(C)(C)[C@H](NS(C)(=O)=O)C(=O)NN(Cc1ccccc1)C[C@@](O)(Cc1ccccc1)C(=O)N[C@H]1c2ccccc2C[C@H]1O",
    "pKi": 7.20
  }
]
